Test system: A549
Experiment: Euclidean distance of Cell Painting phenotypic profile (signed KS, 77 features) to DMSO centroid (dimensionless distance); 5 or 10 uM (library dependent); higher = stronger phenotypic change vs DMSO (phenoactivity)
Settings: 48 h
Binary call on Euclidean distance: criterion met from 0.8 upward, criterion not met beneath that.

1. CC(C)(C)NCC(O)COc1cccc2c1CC(O)C(O)C2 (stereo not given) ... criterion met
2. CN(N=O)C(=O)NC1C(O)OC(CO)C(O)C1O (stereo not given) [Streptozotocin (STZ)] ... criterion not met
3. CC[C@H]1OC(=O)[C@@](C)(F)C(=O)[C@H](C)[C@@H](O[C@@H]2O[C@H](C)C[C@H](N(C)C)[C@H]2O)[C@](C)(OC)C[C@@H](C)C(=O)[C@H](C)[C@H]2N(CCCCn3cc(-c4cccc(N)c4)nn3)C(=O)O[C@]12C ... criterion met
4. NS(=O)(=O)Cc1noc2ccccc12 [Zonisamide] ... criterion met

====

System: HEPG2
Experiment: Euclidean distance of Cell Painting phenotypic profile (signed KS, 77 features) to DMSO centroid (dimensionless distance); 5 or 10 uM (library dependent); higher = stronger phenotypic change vs DMSO (phenoactivity)
Conditions: 48 h
Where a name gives a salt, the structure may show the parent alone.
Tick 1 if Euclidean distance is 1 or greater. Tick -1 if Euclidean distance is less than 1.

1) CN1CCN(CCCN2c3ccccc3Sc3ccc(Cl)cc32)CC1 [Prochlorperazine dimaleate salt] ... 1
2) C[C@@H](NC(=O)c1ncnc(N)c1Cl)c1ncc(C(=O)Nc2cc(C(F)(F)F)c(Cl)cn2)s1 ... -1
3) CCOc1ccc(Cc2cc([C@@H]3O[C@H](CO)[C@@H](O)[C@H](O)[C@H]3O)ccc2Cl)cc1 ... -1
4) CCC[C@H](N[C@H]1CCc2cc(F)cc(F)c2C1)C(=O)Nc1cn(C(C)(C)CNCC(C)(C)C)cn1 ... 1
5) CCCCCCCCCC(=O)OC1(c2ccc(Cl)cc2)CCN(CCCC(=O)c2ccc(F)cc2)CC1 [Haloperidol Decanoate] ... -1
6) CN1CCC(NC(=O)c2cc(-c3c(O)cc(O)cc3Oc3ccc([N+](=O)[O-])cc3)on2)CC1 ... 1
7) CN1CCN2c3ccccc3Cc3ccccc3C2C1 (stereo not given) [Mianserin HCl] ... 1
8) Cc1ccc(C(=O)Nc2cccc(C(F)(F)F)c2)cc1Nc1nc(-c2cccnc2)nc2c1cnn2C ... 1
9) C[C@@H](N)c1ccc(C(=O)Nc2ccnc3[nH]ccc23)cc1 ... 1
10) COc1cc(Nc2ncc(F)c(Nc3ccc4c(n3)N(COP(=O)(O)O)C(=O)C(C)(C)O4)n2)cc(OC)c1OC [Fostamatinib (R788)] ... 1
11) O=c1c(-n2ccnn2)c[nH]n1-c1cc(N2CCOCC2)ncn1 ... -1
12) C[C@]12CCCN1CC1=NNC(=O)c3cc(F)cc4[nH]c2c1c34 ... 1
13) O=C(c1ccc(OCCN2CCCCC2)cc1)c1c(-c2ccc(O)cc2)sc2cc(O)ccc12 ... 1
14) CC(C)(O)CNc1nc(Nc2ccnc(C(F)(F)F)c2)nc(-c2cccc(C(F)(F)F)n2)n1 ... 1

====

System: A549
Experiment: Euclidean distance of Cell Painting phenotypic profile (signed KS, 77 features) to DMSO centroid (dimensionless distance); 5 or 10 uM (library dependent); higher = stronger phenotypic change vs DMSO (phenoactivity)
Settings: 48 h
Reported Euclidean distance values are given for each entry in this list.
MEASUREMENT_KIND: Euclidean distance

1. COc1c(O[C@@H]2O[C@H](CO)[C@@H](O)[C@H](O)[C@H]2O)cc2c(c1OC)-c1ccc(SC)c(=O)cc1[C@@H](NC(C)=O)CC2 [Thiocolchicoside] ... 0.537
2. Cc1cccc(-c2[nH]c(C(C)(C)C)nc2-c2ccc3c(c2)OCO3)n1 ... 1.76
3. Cc1cnc(Nc2ccc(OCCN3CCCC3)cc2)nc1Nc1cccc(S(=O)(=O)NC(C)(C)C)c1 ... 4.4
4. C(=C\c1ccccc1)/CN1CCN(C(c2ccccc2)c2ccccc2)CC1 [Cinnarizine] ... 1.16
5. NC[C@H]1O[C@H](O[C@H]2[C@H](O)[C@@H](O[C@H]3O[C@H](CO)[C@@H](O)[C@H](N)[C@H]3O)[C@H](N)C[C@@H]2N)[C@H](N)C[C@@H]1O [Tobramycin] ... 1.31
6. O=c1[nH]c(=O)n([C@H]2C[C@H](O)[C@@H](CO)O2)cc1/C=C/Br [Brivudine] ... 0.849
7. COC(=O)c1ccc2c(c1)NC(=O)/C2=C(\Nc1ccc(N(C)C(=O)CN2CCN(C)CC2)cc1)c1ccccc1 [Nintedanib (BIBF 1120)] ... 4.29
